# Tested on: T-47D breast
# Assay comment: NCI tumour cell line growth inhibition, 48 h
Quantity: TGI

// worked examples, TGI included
>  <Compound>
COc1ccc(C2c3cc4c(cc3OC(NNC(N)=O)C2C)OCO4)cc1 (configuration not stated)

>  <Endpoint result>
> 100 µM

$$$$
>  <Compound>
C/C=C1/CN2[C@@H](C3=C[C@@H]4[C@@H]5N(C3=O)c3ccccc3[C@@]53CCN5C/C(=C/C)[C@@H]4C[C@H]53)C[C@@]34c5ccccc5N5C(=O)CC=C([C@H]1C[C@H]23)[C@H]54

>  <Endpoint result>
49.2 µM

$$$$
>  <Compound>
CN(C)CCCN=C(N)N

>  <Endpoint result>
> 100 µM

$$$$
>  <Compound>
COc1cc(Cl)cc(-c2nn(C(=O)NCCN3CCN(C)CC3)cc2-c2ccncc2)c1

>  <Endpoint result>
> 100 µM

$$$$
>  <Compound>
COC(=O)c1c(O)ccc2c1c1c(n2Cc2ccc(OC)cc2)C(=O)c2ccccc2C1=O

>  <Endpoint result>
46.1 µM

$$$$

TGI in this record for COc1ccc(-c2cc(C3CC3)nc(SCC(=O)O)c2C#N)cc1 : > 100 µM

TGI in this record for CCOC(=O)CN=C1Nc2ccccc2C(=O)N2CSCC12 (configuration not stated) : > 100 µM

* * *

# System: HT29 colon
# Assay comment: NCI tumour cell line growth inhibition, 48 h
Quantity: GI50

// worked examples, GI50 included
>  <Molecule>
CC(=O)OCC1OC(OC2CC3C(C)(C)C(OC(C)=O)CC[C@]3(C)C3CCC45CC4(CC[C@H]5C(C)CC(O)[C@@H](O)C(C)(C)O)[C@]23C)C(O)C(O)C1O (stereo partly drawn)

>  <GI50>
3.37 µM

$$$$
>  <Molecule>
NCCCC(=O)Nc1ccncc1

>  <GI50>
> 100 µM

$$$$
>  <Molecule>
Nc1ccc(C(=O)c2ccc(N)c(Br)c2)cc1Br

>  <GI50>
0.335 µM

$$$$
>  <Molecule>
CCN1C(=O)N(CC)C2C1NN=c1s/c(=C3\C(=O)N(CC(C)C)c4ccccc43)c(=O)n12 (stereo not drawn)

>  <GI50>
0.396 µM

$$$$
>  <Molecule>
CC1(C)OC[C@@H]([C@@]2(CO[Si](C)(C)C(C)(C)C)CC=CC(=O)O2)O1

>  <GI50>
34.5 µM

$$$$
>  <Molecule>
CC1(C)NCCC[C@]2(C)[C@H]3C=CC4=C5C[C@](C)(CO)CC[C@]5(C)CC[C@@]4(C)[C@]3(C)CC[C@@H]12

>  <GI50>
3.25 µM

$$$$
>  <Molecule>
COc1ccc(CNc2nc3cc(N)cc(N)c3nc2-c2ccccc2)cc1OC

>  <GI50>
7.26 µM

$$$$
>  <Molecule>
Fc1ccc(Oc2nccc(-c3c(-c4ccc(F)cc4)ncn3C3CCNCC3)n2)cc1

>  <GI50>
14.7 µM

$$$$
>  <Molecule>
CC(=O)C1CC2(c3ccc(C)cc3)C(c3ccc(C)cc3)=C(c3ccc(C)cc3)C1(c1ccc(C)cc1)S2=O (stereo not drawn)

>  <GI50>
> 100 µM

$$$$
>  <Molecule>
C=C1C(=O)O[C@@H]2C1C[C@@H](O)/C(C)=C/C/C=C(\C)CCC[C@H](C)[C@H]2OC(C)=O (stereo partly drawn)

>  <GI50>
40 µM

$$$$

GI50 in this record for COc1ccc(C2=NN(C(=O)COc3ccc(Cl)cc3)C(O)(c3cc(F)c(Cl)cc3Cl)C2)cc1OC (stereo not drawn) : 1.51 µM

GI50 in this record for CC(=O)[CH-]C(=O)c1ccccc1.CC(=O)[CH-]C(=O)c1ccccc1.CC(=O)[CH-]C(=O)c1ccccc1.[Tl+3] : 57.1 µM

GI50 in this record for CCOC(=O)Cc1csc(/N=C2\NC(=O)/C(=C3\C(=O)N(C)c4ccccc43)S2)n1 : 44.5 µM
